Cited source: patent US6958321B2

For each of the compounds below, state its log10 of Kd.
# target_system: recombinant MOA (rMOA) (Marasmius oreades, UniProt Q8X123)
# Sequence (Q8X123 1-293): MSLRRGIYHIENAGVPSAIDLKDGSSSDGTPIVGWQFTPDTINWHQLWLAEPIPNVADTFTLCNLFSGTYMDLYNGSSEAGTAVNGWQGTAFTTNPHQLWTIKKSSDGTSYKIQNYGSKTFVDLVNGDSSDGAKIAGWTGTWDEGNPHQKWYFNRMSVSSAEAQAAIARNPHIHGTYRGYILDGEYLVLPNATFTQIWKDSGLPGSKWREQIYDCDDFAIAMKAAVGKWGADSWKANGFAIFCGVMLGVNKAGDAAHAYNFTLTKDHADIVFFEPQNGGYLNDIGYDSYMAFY
# assay: Isothermal titration calorimetry, recombinant MOA (rMOA)
# Assay type: binding
# assay_conditions: read-out: Ka, rMOA (converted)
Hey, these are logged values: log10 of Kd, µM being the unit before logging.

get_value(item= CC(=O)N[C@H]1C(O)O[C@H](CO)[C@@H](O[C@@H]2O[C@H](CO)[C@H](O)[C@H](O[C@H]3O[C@H](CO)[C@H](O)[C@H](O)[C@H]3O)[C@H]2O)[C@@H]1O (some centres unmarked) , readout=log10 of Kd) returns 1.52

get_value(item= OC[C@H]1O[C@H](O[C@H]2[C@@H](O)[C@@H](CO)O[C@@H](O[C@H]3[C@H](O)[C@@H](O)C(O)O[C@@H]3CO)[C@@H]2O)[C@H](O)[C@@H](O)[C@H]1O (some centres unmarked) , readout=log10 of Kd) returns 1.88

get_value(item= CC(=O)N[C@H]1C(O)O[C@H](CO)[C@@H](O[C@@H]2O[C@H](CO)[C@H](O)[C@H](O)[C@H]2O)[C@@H]1O (some centres unmarked) , readout=log10 of Kd) returns 3.17

get_value(item= OC[C@H]1O[C@H](O[C@H]2[C@@H](O)[C@@H](CO)OC(O)[C@@H]2O)[C@H](O)[C@@H](O)[C@H]1O (some centres unmarked) , readout=log10 of Kd) returns 1.57

get_value(item= C[C@@H]1O[C@@H](O[C@H]2C(O)O[C@H](CO)[C@H](O)[C@@H]2O[C@H]2O[C@H](CO)[C@H](O)[C@H](O)[C@H]2O)[C@@H](O)[C@H](O)[C@@H]1O (some centres unmarked) [B trisaccharide, Galα1,3[Fucα1,2]Gal] , readout=log10 of Kd) returns 1.34
